IC50 reference
- Study system: Voltage-gated inwardly rectifying potassium channel KCNH2 (Homo sapiens)
- Sequence (Q12809 whole entry): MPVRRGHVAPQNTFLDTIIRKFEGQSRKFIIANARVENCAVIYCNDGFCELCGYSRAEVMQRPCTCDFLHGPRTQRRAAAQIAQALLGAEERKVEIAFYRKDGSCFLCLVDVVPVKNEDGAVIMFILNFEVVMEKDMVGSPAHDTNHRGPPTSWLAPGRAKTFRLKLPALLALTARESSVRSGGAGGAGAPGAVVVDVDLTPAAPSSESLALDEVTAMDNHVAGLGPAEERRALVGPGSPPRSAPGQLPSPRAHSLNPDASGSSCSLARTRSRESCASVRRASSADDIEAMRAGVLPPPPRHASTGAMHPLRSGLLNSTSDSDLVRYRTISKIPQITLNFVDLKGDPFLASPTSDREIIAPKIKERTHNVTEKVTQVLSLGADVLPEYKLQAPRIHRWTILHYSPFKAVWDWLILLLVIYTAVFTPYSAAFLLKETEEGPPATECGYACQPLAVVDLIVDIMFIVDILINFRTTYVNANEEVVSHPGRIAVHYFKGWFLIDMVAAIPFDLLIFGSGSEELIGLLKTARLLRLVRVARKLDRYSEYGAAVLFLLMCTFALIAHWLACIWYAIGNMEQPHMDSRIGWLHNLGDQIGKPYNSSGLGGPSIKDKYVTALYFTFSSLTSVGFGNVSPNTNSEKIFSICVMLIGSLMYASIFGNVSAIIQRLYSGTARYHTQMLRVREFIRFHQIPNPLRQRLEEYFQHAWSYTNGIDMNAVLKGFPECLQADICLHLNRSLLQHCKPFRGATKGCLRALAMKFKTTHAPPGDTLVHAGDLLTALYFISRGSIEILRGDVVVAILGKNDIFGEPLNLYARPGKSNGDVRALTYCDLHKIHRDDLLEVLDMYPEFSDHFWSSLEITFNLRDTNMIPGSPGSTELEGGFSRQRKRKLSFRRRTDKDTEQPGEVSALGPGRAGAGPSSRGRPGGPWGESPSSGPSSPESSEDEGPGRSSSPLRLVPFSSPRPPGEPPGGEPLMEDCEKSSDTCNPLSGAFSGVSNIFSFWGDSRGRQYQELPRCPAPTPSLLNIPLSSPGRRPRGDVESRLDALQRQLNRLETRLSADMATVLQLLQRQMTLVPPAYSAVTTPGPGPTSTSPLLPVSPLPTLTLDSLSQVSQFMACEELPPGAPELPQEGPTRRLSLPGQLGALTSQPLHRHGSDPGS
- Assay procedure: Displacement of [3H]astemizole from human ERG K+ channel expressed in HEK293 cells by scintillation spectrophotometric analysis

C[n+]1c(C#Cc2ccc(-c3ccccc3)cc2)cccc1C#Cc1ccc(-c2ccccc2)cc1    294 nM
C[n+]1c(C#Cc2ccccc2Cl)cccc1C#Cc1ccccc1Cl    3900 nM
Cc1ccc(OCCCc2cc(N)cc(CCCOc3ccc(C)cc3)n2)cc1    170 nM
c1ccc(CCc2cccc(CCc3ccccc3)n2)cc1    1610 nM
Cc1ccc(C#Cc2cccc(C#Cc3ccc(C)cc3)[n+]2C)cc1    285 nM

Input: # input compound: Cc1ccc(CCOCCCc2cccc(CCCOCCc3ccc(C)cc3)[n+]2C)cc1 ; wanted: its IC50
Output: 371 nM

Input: # input compound: C[n+]1c(COc2ccccc2)cccc1COc1ccccc1 ; wanted: its IC50
Output: 767 nM
